- system under test: NACHT, LRR and PYD domains-containing protein 3 (Mus musculus)
- Sequence (Q8R4B8 whole entry, the tested form may be a part): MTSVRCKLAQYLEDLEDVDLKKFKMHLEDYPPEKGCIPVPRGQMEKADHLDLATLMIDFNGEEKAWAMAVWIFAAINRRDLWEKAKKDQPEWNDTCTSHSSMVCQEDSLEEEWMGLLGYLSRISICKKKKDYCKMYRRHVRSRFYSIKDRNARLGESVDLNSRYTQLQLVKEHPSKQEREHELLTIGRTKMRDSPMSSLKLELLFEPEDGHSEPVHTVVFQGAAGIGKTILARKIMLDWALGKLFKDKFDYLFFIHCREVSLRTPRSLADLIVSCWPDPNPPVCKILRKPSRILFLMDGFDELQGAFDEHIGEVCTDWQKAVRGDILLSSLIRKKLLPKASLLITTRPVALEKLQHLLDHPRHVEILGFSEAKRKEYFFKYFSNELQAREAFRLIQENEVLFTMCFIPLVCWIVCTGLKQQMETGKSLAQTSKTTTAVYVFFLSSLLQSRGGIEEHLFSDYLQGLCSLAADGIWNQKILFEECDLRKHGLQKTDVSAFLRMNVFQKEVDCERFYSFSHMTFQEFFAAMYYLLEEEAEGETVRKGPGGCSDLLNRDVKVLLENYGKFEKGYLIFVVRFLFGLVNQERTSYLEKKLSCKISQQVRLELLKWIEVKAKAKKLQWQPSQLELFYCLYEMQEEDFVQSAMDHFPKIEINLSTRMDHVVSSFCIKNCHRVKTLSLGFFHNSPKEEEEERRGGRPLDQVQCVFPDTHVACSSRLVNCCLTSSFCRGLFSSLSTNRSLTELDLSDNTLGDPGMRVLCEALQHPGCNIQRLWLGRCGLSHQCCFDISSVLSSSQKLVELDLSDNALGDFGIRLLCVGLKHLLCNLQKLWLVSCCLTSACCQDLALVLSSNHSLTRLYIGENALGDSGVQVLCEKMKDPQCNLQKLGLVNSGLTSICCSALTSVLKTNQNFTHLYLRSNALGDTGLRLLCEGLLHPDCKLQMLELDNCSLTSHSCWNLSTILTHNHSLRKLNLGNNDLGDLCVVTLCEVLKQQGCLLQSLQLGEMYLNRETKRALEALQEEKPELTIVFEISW
- measurement protocol: Inhibition of NLRP3 inflammasome activation in LPS/nigericin-treated mouse BMDM cells assessed as inhibition of LPS and nigericin-induced IL-1beta production pre-treated for 1 hr measured after 1 hr of stimulation by ELISA
- Assay type: cell-based
measure: IC50 (nM)

                                 cpd_smiles                         system_under_test  measure  measured
0  O=C(O)c1ccc(/C=C2\SC(=S)N(Cc3cccc(C(F)(F)F)c3)C2=O)cc1  NACHT, LRR and PYD domains-containing protein 3 (Mus musculus)     IC50      1000
